For each entry below, report its interaction score value.
Study System: T1, APC3645-AA
T1 chain: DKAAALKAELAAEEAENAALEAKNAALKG
Experiment Summary: two-hybrid library CCmax;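 note: natural log of median RNA to DNA barcode read ratio; higher means stronger binding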
Reported Conditions: mean of both orientations
One number for each entry.

For every item below, please supply its interaction score.
1. DKIAALEAKNAALEAEIAALKAKNAALEG [4H2447-AA]
2. DEIAALKAENAALKAEIAALKAENAALKG [4H716-AA]
3. DKNAALEAKIAALEAEIAALEAEIAALKG [4H3330-AA]
4. DKIAALEAEIAALKAENAALKAKNAALEG [4H2143-AA]
5. DEIAALKAENAALKAENAALKAKIAALEG [4H733-AA]
6. DKIAALEAKNAALEAENAALKAEIAALKG [4H2458-AA]
7. DEAAALEAEAAALEAKAAALKAKLAAEKG [APC2237-AA]
8. DKIAALEAENAALKAKNAALEAEIAALKG [4H2290-AA]

-- reply
[-1.7, -1.45, -1.25, -1.25, -1.25, -1.47, -1.41, -1.44]

For every item below, please supply its interaction score.
1. DKLAAIKAELAAIEAKLAAIKAKNAALKG [APC1015-AA]
2. DEIAALKAKIAALEAKIAALEAKNAALEG [4H807-AA]

-- reply
[-1.79, -1.3]

Ref: paper PMC10397247
